target: T1, Recombinant human FAP (R&D systems, #3715-SE) (human, UniProt Q12884 26-760); test: SPR (Biacore T200), FAP captured on anti-FAP antibody, single cycle kinetics
T1 construct: bought; in SPR captured on immobilized anti-FAP antibody MAB3715; also called rhFAP; human recombinant FAP
T1 sequence (Q12884 26-760 limits assumed): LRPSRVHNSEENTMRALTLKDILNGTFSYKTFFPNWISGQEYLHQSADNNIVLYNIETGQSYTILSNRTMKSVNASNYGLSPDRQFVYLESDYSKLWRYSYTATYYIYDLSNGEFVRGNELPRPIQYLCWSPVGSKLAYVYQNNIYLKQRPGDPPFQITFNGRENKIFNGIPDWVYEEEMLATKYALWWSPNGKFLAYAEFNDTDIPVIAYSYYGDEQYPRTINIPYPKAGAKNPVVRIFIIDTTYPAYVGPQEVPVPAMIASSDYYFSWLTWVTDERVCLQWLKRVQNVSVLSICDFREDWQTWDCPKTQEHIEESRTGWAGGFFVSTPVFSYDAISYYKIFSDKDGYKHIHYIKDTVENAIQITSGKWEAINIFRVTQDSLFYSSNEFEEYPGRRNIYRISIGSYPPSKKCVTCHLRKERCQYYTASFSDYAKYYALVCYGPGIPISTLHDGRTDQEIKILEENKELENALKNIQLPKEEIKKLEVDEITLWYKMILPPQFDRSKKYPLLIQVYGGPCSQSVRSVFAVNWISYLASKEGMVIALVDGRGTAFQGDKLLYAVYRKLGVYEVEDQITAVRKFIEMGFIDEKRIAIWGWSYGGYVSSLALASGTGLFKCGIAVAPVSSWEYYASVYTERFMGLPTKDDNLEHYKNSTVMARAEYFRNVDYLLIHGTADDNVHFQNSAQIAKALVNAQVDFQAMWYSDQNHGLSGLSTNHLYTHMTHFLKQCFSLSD
Numbered stars: 1 amine (or outer) side, 2 acyl side, 3 side chain; on linkers, the order of the positions; unused ones are H or OH. Bridge positions count the residues as written; N and C are the ends. Square brackets hold non-standard residues; d marks the D form. Primed or numbered codes have the meaning given here. * marks the point of attachment. tMeBn(DOTA-PP)″ = trimethylbenzylidene (tMeBn) bridge between the two Cys thiols, whose remaining connection point carries a DOTA chelator via a PP linker; Ttds = 1,13-diamino-4,7,10-trioxatridecan-succinamic acid, O=C(CCC(=O)[*:2])NCCCOCCOCCOCCCN[*:1]; DOTA = O=C(O)CN1CCN(CC(=O)O)CCN(CC(=O)*)CCN(CC(=O)O)CC1; mXylylene = c1cc(C[*:1])cc(C[*:2])c1; Pentanesulfonyl = CCCCCS(=O)(=O)*; 4Amb = NCc1ccc(C(=O)O)cc1; Nle = CCCC[C@H](N)C(=O)O; Hexanoyl = CCCCCC(=O)*
Listing of recorded pKD Category by entry.

- Ac-CPPTEFCDHFRD-NH2 (linker 1-7 via mXylylene; SMILES CC(=O)N[C@H]1CSCc2cccc(c2)CSC[C@@H](C(=O)N[C@@H](CC(=O)O)C(=O)N[C@@H](Cc2c[nH]cn2)C(=O)N[C@@H](Cc2ccccc2)C(=O)N[C@@H](CCCNC(=N)N)C(=O)N[C@@H](CC(=O)O)C(N)=O)NC(=O)[C@H](Cc2ccccc2)NC(=O)[C@H](CCC(=O)O)NC(=O)[C@H]([C@@H](C)O)NC(=O)[C@@H]2CCCN2C(=O)[C@@H]2CCCN2C1=O, also called 3BP-3202) [Ac-[Cys(3MeBn)-Pro-Pro-Thr-Glu-Phe-Cys]-Asp-His-Phe-Arg-Asp-NH2]: > 8 pKD

Please give the documented pKD Category of {DOTA}-[Ttds][Nle]CPPTEFCD[4Amb]R-NH2 (linker 3-9 via mXylylene; SMILES CCCC[C@H](NC(=O)CCC(=O)NCCCOCCOCCOCCCNC(=O)CN1CCN(CC(=O)O)CCN(CC(=O)O)CCN(CC(=O)O)CC1)C(=O)N[C@H]1CSCc2cccc(c2)CSC[C@@H](C(=O)N[C@@H](CC(=O)O)C(=O)NCc2ccc(C(=O)N[C@@H](CCCNC(=N)N)C(N)=O)cc2)NC(=O)[C@H](Cc2ccccc2)NC(=O)[C@H](CCC(=O)O)NC(=O)[C@H]([C@@H](C)O)NC(=O)[C@@H]2CCCN2C(=O)[C@@H]2CCCN2C1=O, also called 3BP-3321) [DOTA-Ttds-Nle-[Cys(3MeBn)-Pro-Pro-Thr-Glu-Phe-Cys]-Asp-Pamb-Arg-NH2]
> 8 pKD

Identify measured pKD Category corresponding to Hexanoyl-CPPTQFCS-OH (linker 1-7 via tMeBn(DOTA-AET), also called 3BP-3658) [Hex-[Cys(tMeBn(DOTA-AET))-Pro-Pro-Thr-Gln-Phe-Cys]-Ser-OH]
> 8 pKD

Retrieve pKD Category measured for Pentanesulfonyl-CPPTQFCD-NH2 (linker 1-7 via tMeBn(DOTA-PP)″, also called 3BP-3692) [Pentyl-SO2-[Cys(tMeBn(DOTA-PP))-Pro-Pro-Thr-Gln-Phe-Cys]-Asp-NH2] and print it.
> 8 pKD

Values were extracted from patent US20230212549A1.
